- Test system: S. cerevisiae Burl-1 ts mutant growth, BacTiter-Glo, 38.5C 24 h
- protocol.summary: restored growth of temperature-sensitive Burl-1 yeast – whole organism, S. cerevisiae, Burl-1 ts mutant, luminescence, counter-screen for SUMOylation pathway inhibitor project, dose response (AID 463199)
Active and inactive are the calls of the source.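 How the source made its calls: active means AC50, the dose giving half-maximal effect, exceeds a fixed cutoff for a compound that rescues yeast growth under heat; inactive means the rest, inconclusive results apart.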
# valid calls are active, inactive; nothing else

# example entries with known answers
compound	class.name
O=C(O)c1ccc(CNC(=O)c2ccccc2NC(=O)c2ccc([N+](=O)[O-])cc2)cc1	inactive
CC(=O)N(C(C)=O)C1=C(C#N)C2(CCCCC2)Cc2ccccc21	inactive
O=S(=O)(Cc1ccccc1)NCc1ccccn1	inactive
CC(=O)Nc1cccc(NC(=S)Nc2ccc(F)cc2F)c1	inactive

Could you please tell me the result logged for `Cn1cnnc1-c1cccc(NS(=O)(=O)c2ccc(N3CCCC3=O)cc2)c1` in this assay?
inactive

Could you please tell me the result logged for CC(NC(=O)C1CCCN(S(=O)(=O)N2CCOCC2)C1)c1ccccc1 (stereo not given) in this assay?
inactive

Could you please tell me the result logged for Cc1cc(C)cc(C(=O)NC(CC(N)=O)c2ccc(NCCN3CCOCC3)c([N+](=O)[O-])c2)c1 (stereo not given) in this assay?
inactive

Could you please tell me the result logged for `COc1ccccc1NC(=S)N(Cc1ccccc1)Cc1cccs1` in this assay?
inactive

Could you please tell me the result logged for `COc1cccc(NC(=O)CNC(=O)c2ccc(C)cc2)c1` in this assay?
inactive

Could you please tell me the result logged for Cc1ccc(C(=O)N/C(=C/c2ccccc2)C(=O)NCC2CCCO2)cc1 (stereo not given) in this assay?
inactive

Could you please tell me the result logged for CC1(C)CC(=O)C2=C(C1)OC(N)=C(C#N)C21C(=O)N(CN2CCOCC2)c2ccccc21 (stereo not given) in this assay?
inactive

Could you please tell me the result logged for `CSc1ccc(CN2CCN(S(=O)(=O)Cc3ccccc3)CC2)cc1` in this assay?
inactive

Could you please tell me the result logged for `O=C(COc1ncnc2c(Cl)cc(Cl)cc12)NCCC1=CCCCC1` in this assay?
inactive

Could you please tell me the result logged for NC(=O)c1nsc(C(=O)N(Cc2ccc(F)cc2)C(C(=O)NC2CCCC2)c2ccco2)c1N (stereo not given) in this assay?
inactive

Could you please tell me the result logged for Cc1nn(C)cc1CNC(=O)C1CCC(=O)N(Cc2cccc(C(F)(F)F)c2)C1 (stereo not given) in this assay?
inactive

Could you please tell me the result logged for `COc1ccc(NC(=O)c2cc(S(=O)(=O)Nc3ccc(OC)cc3)cs2)cc1` in this assay?
inactive

====

- Test system: S. cerevisiae Burl-1 ts mutant growth, BacTiter-Glo, 38.5C 24 h
- protocol.summary: restored growth of temperature-sensitive Burl-1 yeast – whole organism, S. cerevisiae, Burl-1 ts mutant, luminescence, counter-screen for SUMOylation pathway inhibitor project, dose response (AID 463199)
The source made the active and inactive calls.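 The calls were made as follows: active = AC50, the dose giving half-maximal effect, exceeds a fixed cutoff for a compound that rescues yeast growth under heat; inactive = the rest, inconclusive results apart.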
# valid calls are Y = active, N = inactive; nothing else

# example entries with known answers
compound	class.name
CCn1c(SCC(=O)OC)nnc1-c1ccncc1	N
O=C(Nc1ccc2ccccc2c1)N1CCCN(CCOc2ccccc2)CC1	N
COc1ccccc1NC(=O)N1CCN(C(=O)Nc2ccccc2OC)CC1	N
CCOC(=O)c1cc2sc(C)cc2n1CC(=O)Nc1ccc2c(c1)OCCO2	N

Could you please tell me the result logged for `CCOC(=O)c1cnc2oc3ccccc3n2c1=O` in this assay?
N

Could you please tell me the result logged for CSCCC(NC(=O)c1ccco1)C(=O)N1CCN(Cc2ccccc2)CC1 (stereo not drawn) in this assay?
N

====

- System: S. cerevisiae Burl-1 ts mutant growth, BacTiter-Glo, 38.5C 24 h
- protocol.summary: restored growth of temperature-sensitive Burl-1 yeast – whole organism, S. cerevisiae, Burl-1 ts mutant, luminescence, counter-screen for SUMOylation pathway inhibitor project, dose response (AID 463199)
The source made the active and inactive calls.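 The calls were made as follows: active = AC50, the dose giving half-maximal effect, exceeds a fixed cutoff for a compound that rescues yeast growth under heat; inactive = the rest, inconclusive results apart.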
Measured AC50 accompanies every entry in the list below.

Consider the following illustrative entries.
molecule	AC50
CCCCNC(=O)N1CCC(CCC(=O)N(C)Cc2ccccc2)CC1	> 42 µM (inactive)
Cc1ccc(NC(=O)C(CC(C)C)NC(=O)C2CCC(C)CC2)nc1 (stereo not drawn)	> 42 µM (inactive)

# ---- query molecule ----
# AC50 lookup, item `Cc1cccc(CSc2ccc(-c3ccco3)nn2)c1`
> 42 µM (inactive)

====

- Test system: S. cerevisiae Burl-1 ts mutant growth, BacTiter-Glo, 38.5C 24 h
- protocol.summary: restored growth of temperature-sensitive Burl-1 yeast – whole organism, S. cerevisiae, Burl-1 ts mutant, luminescence, counter-screen for SUMOylation pathway inhibitor project, dose response (AID 463199)
Active and inactive are the calls of the source.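 The calls were made as follows: active = AC50, the dose giving half-maximal effect, exceeds a fixed cutoff for a compound that rescues yeast growth under heat; inactive = the rest, inconclusive results apart.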
# valid calls are y for active, n for inactive; nothing else

chemical.smiles	class.name
CC(=O)Nc1ccc(S(=O)(=O)Nc2ccc3c(c2)C(=O)OC3)cc1	n
Clc1ccc(CONc2ncnc3nonc23)c(Cl)c1	y
COc1nc(OC)nc(N2CCC(C(=O)NC3CCCCCC3)CC2)n1	n

Could you please tell me the result logged for `Clc1ccc(CNCc2cccs2)cc1Cl` in this assay?
n

====

- Tested on: S. cerevisiae Burl-1 ts mutant growth, BacTiter-Glo, 38.5C 24 h
- protocol.summary: restored growth of temperature-sensitive Burl-1 yeast – whole organism, S. cerevisiae, Burl-1 ts mutant, luminescence, counter-screen for SUMOylation pathway inhibitor project, dose response (AID 463199)
Activity calls are given as the source filed them.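 Rule for the calls: active = AC50, the dose giving half-maximal effect, exceeds a fixed cutoff for a compound that rescues yeast growth under heat; inactive = the rest, inconclusive results apart.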
Measured AC50 accompanies every entry in the list below.

compound	observed.result
Cc1sc(NC(=O)c2ccc(Br)s2)c(C(N)=O)c1C	> 42 µM (inactive)
O=C(CSc1ncccn1)c1ccccc1Br	> 42 µM (inactive)
COCCn1c(SCC(=O)Nc2nc3ccccc3s2)nnc1-c1ccoc1C	> 42 µM (inactive)
Cc1ccccc1Cn1cc(NC(=O)c2cc3nc(-c4ccco4)cc(C(F)(F)F)n3n2)cn1	> 42 µM (inactive)

Lab note: need AC50 for Cc1cc(C)cc(C(=O)NC(CC(N)=O)c2ccc(N3CCC(N4CCCCC4)CC3)c([N+](=O)[O-])c2)c1 (configuration not stated) on S. cerevisiae Burl-1 ts mutant growth, BacTiter-Glo, 38.5C 24 h, anyone have it?
> 42 µM (inactive)

Lab note: need AC50 for CN1C(=S)SC2CS(=O)(=O)CC21C (configuration not stated) on S. cerevisiae Burl-1 ts mutant growth, BacTiter-Glo, 38.5C 24 h, anyone have it?
> 21 µM (inactive)

Lab note: need AC50 for `CC1(C)CC(=O)C(C=Nc2ccc(O)c(N=CC3=C(O)CC(C)(C)CC3=O)c2)=C(O)C1` on S. cerevisiae Burl-1 ts mutant growth, BacTiter-Glo, 38.5C 24 h, anyone have it?
> 42 µM (inactive)

====

- Tested on: S. cerevisiae Burl-1 ts mutant growth, BacTiter-Glo, 38.5C 24 h
- protocol.summary: restored growth of temperature-sensitive Burl-1 yeast – whole organism, S. cerevisiae, Burl-1 ts mutant, luminescence, counter-screen for SUMOylation pathway inhibitor project, dose response (AID 463199)
The source made the active and inactive calls.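 How the source made its calls: active means AC50, the dose giving half-maximal effect, exceeds a fixed cutoff for a compound that rescues yeast growth under heat; inactive means the rest, inconclusive results apart.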
# valid calls are TRUE (active), FALSE (inactive); nothing else

# example entries with known answers
compound	study.system	class.name
Cc1ccc(S(=O)(=O)NCC(=O)OCC(=O)c2ccc(Br)s2)cc1	S. cerevisiae Burl-1 ts mutant growth, BacTiter-Glo, 38.5C 24 h	FALSE
Cc1ccc(S(=O)(=O)N(C)c2ccc(OC(=O)CN3C(=O)NC4(CCCC4)C3=O)cc2)cc1C	S. cerevisiae Burl-1 ts mutant growth, BacTiter-Glo, 38.5C 24 h	FALSE
O=C1CN(C(=O)c2c(F)cccc2F)C(c2ccc(F)cc2)c2cc(F)ccc2N1 (stereo not drawn)	S. cerevisiae Burl-1 ts mutant growth, BacTiter-Glo, 38.5C 24 h	FALSE
COc1ccc(C(=O)Nn2c(SCC(=O)NCc3ccccc3)nc3ccccc3c2=O)cc1	S. cerevisiae Burl-1 ts mutant growth, BacTiter-Glo, 38.5C 24 h	FALSE
Cc1ccc(S(=O)(=O)N2[C@@H](c3ccc(Br)cc3)C(C(=O)O)=C[C@H]2CC2CCCC2)cc1	S. cerevisiae Burl-1 ts mutant growth, BacTiter-Glo, 38.5C 24 h	FALSE

Attention now turns to another entry.
Could you please tell me the result logged for `COc1ccc(/C=C(\C#N)C(=O)NCCCn2ccnc2)cc1` in this assay?
FALSE

====

- Test system: S. cerevisiae Burl-1 ts mutant growth, BacTiter-Glo, 38.5C 24 h
- protocol.summary: restored growth of temperature-sensitive Burl-1 yeast – whole organism, S. cerevisiae, Burl-1 ts mutant, luminescence, counter-screen for SUMOylation pathway inhibitor project, dose response (AID 463199)
Calls of active or inactive are those of the source.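 How the source made its calls: active means AC50, the dose giving half-maximal effect, exceeds a fixed cutoff for a compound that rescues yeast growth under heat; inactive means the rest, inconclusive results apart.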
# valid calls are True = active, False = inactive; nothing else

# example entries with known answers
compound	class.name
COc1ccc(NC(=O)Nc2ccccc2C(=O)N2CCCC2)cc1	True
O=c1cc(-c2ccccc2)nc(N2CCN(Cc3ccccc3)CC2)[nH]1	False
CC(=O)Nc1cccc(OCC(O)Cn2c(C)nc3ccccc32)c1 (configuration not stated)	False

Could you please tell me the result logged for O=C(Nc1cccc(O)c1)C(Cc1ccccc1)N1C(=O)c2cccc3cccc(c23)C1=O (configuration not stated) in this assay?
False

Could you please tell me the result logged for O=C(O)CC(NC(=O)c1ccc2c(c1)OCO2)c1cccc([N+](=O)[O-])c1 (configuration not stated) in this assay?
False

Could you please tell me the result logged for O=C(NCCCN1CCOCC1)C1CCC(=O)N1CCc1ccccc1 (configuration not stated) in this assay?
False

Could you please tell me the result logged for `COc1cc(OC)c(C(=O)N2CCN(c3ccccn3)CC2)cc1OC` in this assay?
False
